# Test: amyloid nucleation score (Sup35N fusion, yeast selection) (log enrichment); library NNK1; higher = more nucleation; inactive = no reads after selection;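 further: zero at mode of non-aggregating sequences after 7 days selection at 30°C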
Measurement type: amyloid nucleation score
Answers are plain numbers.

CHWLNVYSCFSYVVTYDWSN : 6.04
AYSLLMDYGFNHLFIRRFSR : -0.067
FKDGLCYCNSGVS : -0.452
MYFSIRDCCSYAFNSFDIYG : 5.51
VRSKLPPGSFDSFWGWWEKK : -0.343
LCLTKNMCTSIVRVRALVCR : -0.161

Would you mind giving amyloid nucleation score for every substance in the list below?
1. GLSQWGTVRCHTAASIYLAT
2. PIDAPISQLGLCMFGYQEGL
3. SNQSDLMLLMENMIDYMKSL
4. RYIVVG

OUT:
1: 0.316; 2: -0.999; 3: 1.32; 4: 0.106

Would you mind giving amyloid nucleation score for every substance in the list below?
1. TYLQRCSIFRPSLTSMG
2. YSSLLVTLAEAWCIRLSNRR
3. TSFGYLLVSRNWCNSWCIMS
4. GHVRFSMHRRSDVCKQGSND

OUT:
1: 0.273; 2: 0.665; 3: 3.01; 4: 0.91

Would you mind giving amyloid nucleation score for every substance in the list below?
1. IGFEIHFMYALE
2. SGGELVVLIYMNMGASGWAP

OUT:
0.355
-0.756
